meta.source: patent US20240307374A1

- PROTOCOL NOTES: Equilibrium solubility in pH buffers (pH 4.0-6.0) with pH adjustment
- Type: physicochemical
- EXPERIMENTAL CONTEXT: pH = 5.0 buffer (50 mM citrate)
Exercise: state measured FC: form change (XRPD of precipitate) for each of the compounds provided.

Look up and state reported FC: form change (XRPD of precipitate) for CC(=O)NCC1CCN(Cc2cc(Oc3ccc(N4CCN(CCC(=O)O)CC4)nc3)nc(-c3cc(Cl)cc(Cl)c3)c2)CC1 [Fumarate Type A]
4 (3/4/6/7/8: new Form 3/4/6/7/8)

Look up and state reported FC: form change (XRPD of precipitate) for CC(=O)NCC1CCN(Cc2cc(Oc3ccc(N4CCN(CCC(=O)O)CC4)nc3)nc(-c3cc(Cl)cc(Cl)c3)c2)CC1 [Sulfate Type B]
3 (3/4/6/7/8: new Form 3/4/6/7/8)

###

- PROTOCOL NOTES: Complexation stability constant test: solubility in HPβCD solutions
- Type: physicochemical
- EXPERIMENTAL CONTEXT: 5% (w/w) HPβCD solution, aqueous with cosolvent or surfactant or cyclodextrin, thermodynamic from solid; 5% (w/w) HPβCD, RT, 24 hours, final pH 7.3; read-out: Solubility
MEASURED METRIC: solubility at 24 h (µg/mL)
Unit µg/mL implied. Number only.

Look up and state reported solubility at 24 h for CC(=O)NCC1CCN(Cc2cc(Oc3ccc(N4CCN(CCC(=O)O)CC4)nc3)nc(-c3cc(Cl)cc(Cl)c3)c2)CC1 [Freeform Type D]
420

###

- PROTOCOL NOTES: Equilibrium solubility in pH buffers (pH 4.0-6.0) with pH adjustment
- Type: physicochemical
- EXPERIMENTAL CONTEXT: pH = 6.0 buffer (50 mM citrate)
Where a name gives a salt, the structure may show the parent alone.
MEASURED METRIC: FC: form change (XRPD of precipitate)

Look up and state reported FC: form change (XRPD of precipitate) for CC(=O)NCC1CCN(Cc2cc(Oc3ccc(N4CCN(CCC(=O)O)CC4)nc3)nc(-c3cc(Cl)cc(Cl)c3)c2)CC1 [HCl salt Type F]
8 (3/4/6/7/8: new Form 3/4/6/7/8)

Look up and state reported FC: form change (XRPD of precipitate) for CC(=O)NCC1CCN(Cc2cc(Oc3ccc(N4CCN(CCC(=O)O)CC4)nc3)nc(-c3cc(Cl)cc(Cl)c3)c2)CC1 [Fumarate Type A]
7 (3/4/6/7/8: new Form 3/4/6/7/8)

Look up and state reported FC: form change (XRPD of precipitate) for CC(=O)NCC1CCN(Cc2cc(Oc3ccc(N4CCN(CCC(=O)O)CC4)nc3)nc(-c3cc(Cl)cc(Cl)c3)c2)CC1 [Sulfate Type B]
6 (3/4/6/7/8: new Form 3/4/6/7/8)

###

- PROTOCOL NOTES: Complexation stability constant test: solubility in SBECD solutions
- Assay type: physicochemical
- EXPERIMENTAL CONTEXT: 20% (w/w) SBECD solution, aqueous with cosolvent or surfactant or cyclodextrin, thermodynamic from solid; 20% (w/w) SBECD, RT, 24 hours, final pH 7.9; read-out: Solubility
MEASURED METRIC: solubility at 24 h
Quick note: unit goes after the number.

Look up and state reported solubility at 24 h for CC(=O)NCC1CCN(Cc2cc(Oc3ccc(N4CCN(CCC(=O)O)CC4)nc3)nc(-c3cc(Cl)cc(Cl)c3)c2)CC1 [Freeform Type D]
9350 µg/mL
